- Tested on: MDA-MB-231 (ER−)
- TEST: MTT growth inhibition assay, MDA-MB-231 breast cancer cells
- Type: cell-based
- EXPERIMENTAL CONDITIONS: Table 2 (repeat run with additional compounds), 8 days
This section presents molecules with their documented pIC50 values.
The value called pIC50 is obtained by taking minus log10 of the concentration in mol/L.

COc1cc([C@H]2Oc3cc(O)cc(O)c3C[C@H]2OC(=O)c2cc(C)c(O)c(C)c2)cc(OC)c1O ... 5.00

So the reported pIC50 for O=C(O[C@@H]1Cc2c(O)cc(O)cc2O[C@@H]1c1cc(O)c(O)c(O)c1)c1cc(O)c(O)c(O)c1 [EGCG, (−)-epigallocatechin-3-gallate, reference compound] , on MDA-MB-231 (ER−), turned out to be 4.43
